Source listed as patent US20050009813A1.

# Assay System: monoamino oxidase A from rat brain (Rattus norvegicus)
# Sequence (P21396 1-526): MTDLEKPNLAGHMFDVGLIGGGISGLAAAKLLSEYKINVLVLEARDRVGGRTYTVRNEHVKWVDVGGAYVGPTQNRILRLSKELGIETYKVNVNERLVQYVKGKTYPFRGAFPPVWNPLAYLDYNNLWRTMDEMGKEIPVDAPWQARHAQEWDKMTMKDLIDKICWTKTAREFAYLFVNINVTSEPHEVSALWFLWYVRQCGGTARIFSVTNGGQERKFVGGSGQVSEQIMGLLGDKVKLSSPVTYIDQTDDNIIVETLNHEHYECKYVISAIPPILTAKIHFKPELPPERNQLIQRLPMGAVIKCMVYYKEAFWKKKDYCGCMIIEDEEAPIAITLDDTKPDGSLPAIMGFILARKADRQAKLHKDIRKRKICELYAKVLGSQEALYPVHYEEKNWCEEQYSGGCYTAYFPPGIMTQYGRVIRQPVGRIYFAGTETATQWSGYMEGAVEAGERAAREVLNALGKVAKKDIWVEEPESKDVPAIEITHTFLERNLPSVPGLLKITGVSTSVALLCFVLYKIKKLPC
# Assay Text: Inhibition of monoamino oxidase A from rat brain, [3H]serotonine substrate (Medvedev et al.)
# Experimental Setup: rat brain MAO-A; 95 μM [3H]serotonine; 1% DMSO in 20 mM potassium dihydrogenphosphate buffer pH 7.4; 10 nM to 10 μM; read-out: semi-maximal inhibitory action (IC50), monoamino oxidase A
Measured Quantity: IC50 (nM)

| Molecule | Endpoint Result |
| --- | --- |
| c1ccc2c(c1)CN1CCCC1=N2 [deoxypeganine] | 1490 |
